pIC50: −log10 of the molar value.
The following compounds were reported with pIC50 values on SYK kinase (Homo sapiens) in different studies.
observed property: pIC50

INSERT INTO results (compound, system_under_test, recorded_result) VALUES
  ('COc1cc(Nc2nc3c(NC4CCCCC4N)nccn3n2)cc(OC)c1 (stereo not shown)', 'SYK kinase (Homo sapiens)', '4.30 to 5.52'),
  ('COc1cccc(Nc2nccc(-c3nccs3)n2)c1', 'SYK kinase (Homo sapiens)', '> 6.30'),
  ('CC(C(=O)O)n1cc(Nc2nc(-c3ccc4cn[nH]c4c3)nc3cn[nH]c23)cn1 (stereo not shown)', 'SYK kinase (Homo sapiens)', '6.00 to 7.00'),
  ('COc1cc(-c2cc3nccc(-c4cc[nH]n4)c3o2)cc(OC)c1OC', 'SYK kinase (Homo sapiens)', '> 6.52');

---

A compilation of IC50 values for SYK kinase (Homo sapiens, UniProt P43405) from the published literature.
observed property: IC50

INSERT INTO assay_data (compound_structure, recorded_result) VALUES
  ('COc1cc(Nc2nc3c(-c4cnc5ccccc5c4)nccn3n2)cc(OC)c1', '< 0.3 µM'),
  ('Oc1cccc(Nc2nccc(-c3nccs3)n2)c1', '< 0.5 µM'),
  ('Cc1cc(Nc2nc3cncc(-c4cnn(CCC(C)C)c4)n3n2)ccc1N1CCN(C)CC1', '< 1 µM');

---

Collected set of IC50 measured with SYK kinase (Homo sapiens) across studies.
observed property: IC50

INSERT INTO measurements (compound_structure, recorded_result) VALUES
  ('C#CC(C)(C)c1cc(NC(=O)Nc2ccc(Oc3ccnc(Nc4ccc5c(c4)NC(=O)C5)n3)c3ccccc23)n(-c2ccc(C)cc2)n1', '113 nM'),
  ('c1ccc(-c2ccnc3cc(-c4ccc(N5CCOCC5)cc4)oc23)cc1', '300 to 3000 nM'),
  ('CC(=O)N1CCC(n2cc(Nc3nc(-c4nc5ccccc5s4)nc4cn[nH]c34)cn2)CC1', '< 10 nM'),
  ('CC(=O)N1C[C@H](O)C[C@@H]1c1nc(-c2ccc(N3CCC(F)(F)CC3)cc2)c2cnc3[nH]ccc3n12', '< 10 nM'),
  ('Fc1cccc(F)c1-c1nc(Nc2cnn(C3CCOCC3)c2)c2[nH]ncc2n1', '100 to 1000 nM');

---

Let's look at some pIC50 data for SYK kinase (Homo sapiens) that I collected from the literature.
pIC50: −log10 of the molar value.
observed property: pIC50

INSERT INTO assay_data (molecule, observed_property, recorded_result) VALUES
  ('Cc1nc2cc(Nc3nccc(Oc4ccc(NC(=O)Nc5cc(C(C)(C)C)nn5-c5ccc(OCCN6CCOCC6)cc5)c5ccccc45)n3)ccc2[nH]1', 'pIC50', '> 9.00'),
  ('COc1cc(OC)c2nc(Nc3cnn(C4CCN(C(C)(C)C)CC4)c3)c3[nH]ncc3c2c1', 'pIC50', '7.00 to 8.00'),
  ('CC(C)S(=O)(=O)N1CCO[C@H](COc2nc(-c3ccc(N(C)C)cc3)cc3nccnc23)C1', 'pIC50', '7.00 to 9.00'),
  ('c1ccc(-c2ccccc2-c2nccn3nc(Nc4ccc5cn[nH]c5c4)nc23)cc1', 'pIC50', '5.52 to 6.52'),
  ('Cc1ccc(-n2nc(C(C)(C)C)cc2NC(=O)Nc2ccc(OCc3ccnc(Nc4cncc(C5CCCC5)n4)c3)c3ccccc23)cc1', 'pIC50', '< 4.82'),
  ('CN1CCC(n2cc(Nc3nc(-c4cccc(NS(C)(=O)=O)c4)nc4cn[nH]c34)cn2)CC1', 'pIC50', '7.00 to 8.00'),
  ('COc1cc2cc(c1)NC(=O)CN(C)C(=O)C1(C)Oc3ccc(cc3NC1=O)Nc1nc(ncc1F)C2 (stereo not drawn)', 'pIC50', '> 6.52'),
  ('CC(C)C1C(=O)NCCN1c1ncc(-c2cccc(Nc3nccc(C(F)(F)F)n3)c2)o1 (stereo not drawn)', 'pIC50', '≥ 7.00'),
  ('CC1CCCN1c1nccn2nc(Nc3ccc4c(c3)NC(=O)C4(C)C)nc12 (stereo not drawn)', 'pIC50', '> 7.00');

---

// note: IC50 values for SYK kinase (Homo sapiens, UniProt P43405) were reported in different studies
observed property: IC50

INSERT INTO results (compound, system_under_test, recorded_result) VALUES
  ('COCCOCCOCCOCCOCCOCCOCCOc1cc(Nc2cc(Oc3ccc(NC(=O)Nc4cc(C(C)(C)C)cc(NS(C)(=O)=O)c4OC)c4ccccc34)ccn2)cc(OC)c1', 'SYK kinase (Homo sapiens, UniProt P43405)', '455 nM'),
  ('CC1(C)C(=O)Nc2cc(Nc3nc4c(Nc5n[nH]c(C(F)(F)F)n5)nccn4n3)ccc21', 'SYK kinase (Homo sapiens, UniProt P43405)', '300 to 3000 nM'),
  ('CO[C@H](C)c1ccc(-c2nc([C@H]3C[C@@H](O)CN3C(C)=O)n3c2cnc2[nH]ccc23)cc1', 'SYK kinase (Homo sapiens, UniProt P43405)', '10 to 30 nM'),
  ('COc1cccc(Nc2nc(NC3C4C=CC(C4)C3C(=O)N(C)C)c3nc[nH]c3n2)c1 (racemic)', 'SYK kinase (Homo sapiens, UniProt P43405)', '< 10000 nM'),
  ('COCCn1cc(Nc2nc(C(C)C)nc3cn[nH]c23)cn1', 'SYK kinase (Homo sapiens, UniProt P43405)', '100 to 1000 nM'),
  ('CC1(C)C(=O)Nc2cc(Nc3nc4c(N[C@H]5CC[C@@H](O)CC5)nccn4n3)ccc21', 'SYK kinase (Homo sapiens, UniProt P43405)', '< 100 nM'),
  ('CC(=O)N(C)Cc1ccc(-c2cc3nccnc3c(OC[C@@H]3CN(S(C)(=O)=O)CCO3)n2)cc1', 'SYK kinase (Homo sapiens, UniProt P43405)', '54 nM'),
  ('CCc1ccnc(Nc2cccc(-c3cnc(N4CCNC(=O)C4(C)C)o3)c2)n1', 'SYK kinase (Homo sapiens, UniProt P43405)', '≤ 100 nM'),
  ('CC(C)(C)N1CCC(n2cc(Nc3nc(C4CC4)nc4cn[nH]c34)cn2)CC1', 'SYK kinase (Homo sapiens, UniProt P43405)', '< 10 nM'),
  ('CC(C)(C)c1nc(Nc2cnn(C3CC3)c2)c2[nH]ncc2n1', 'SYK kinase (Homo sapiens, UniProt P43405)', '100 to 1000 nM'),
  ('COc1cc(-c2cc3nccc(-c4ccc(CNC(C)=O)cc4)c3o2)cc(OC)c1OC', 'SYK kinase (Homo sapiens, UniProt P43405)', '300 to 3000 nM'),
  ('NC(=O)C1C2C=CC(C2)C1Nc1nc(Nc2ccc(OCCN3CCCC3)c(F)c2)nc2[nH]cnc12 (racemic)', 'SYK kinase (Homo sapiens, UniProt P43405)', '< 10000 nM'),
  ('Cc1ccnc(Nc2cccc(-c3cnc(-c4c(C)cccc4C)o3)n2)c1', 'SYK kinase (Homo sapiens, UniProt P43405)', '1000 to 10000 nM'),
  ('COc1cc(-c2ccnc3cc(-c4cc(OC)c(OC)c(OC)c4)oc23)ccn1', 'SYK kinase (Homo sapiens, UniProt P43405)', '< 300 nM'),
  ('CC(C)n1cc(Nc2nc(C3CC3)nc3cn[nH]c23)cn1', 'SYK kinase (Homo sapiens, UniProt P43405)', '< 10 nM'),
  ('CO[C@@H]1CNc2cc(Nc3ncc(C(N)=O)c(NC4CC4)n3)ccc2OC1', 'SYK kinase (Homo sapiens, UniProt P43405)', '10 to 100 nM'),
  ('CS(=O)(=O)N1CCO[C@H](COc2nc(-c3ccc4c(c3)OCCO4)cc3nccnc23)C1', 'SYK kinase (Homo sapiens, UniProt P43405)', '1 to 100 nM'),
  ('CN(C)Cc1nc2cc(Nc3nc4cncc(-c5ccc6c(cnn6C)c5)n4n3)ccc2[nH]1', 'SYK kinase (Homo sapiens, UniProt P43405)', '1000 to 5000 nM'),
  ('CN1CCN(c2ccc(Nc3nc(-c4c(F)cccc4F)nc4cn[nH]c34)cc2Cl)CC1', 'SYK kinase (Homo sapiens, UniProt P43405)', '10 to 100 nM'),
  ('CC(C)c1ccnc(Nc2cccc(-c3cnc(N4CCNC(=O)C4C)o3)c2)n1 (stereo not drawn)', 'SYK kinase (Homo sapiens, UniProt P43405)', '≤ 100 nM'),
  ('COc1ccc(C(N)=O)cc1-c1cc2nccc(-c3c(OC)cncc3OC)c2o1', 'SYK kinase (Homo sapiens, UniProt P43405)', '100 to 300 nM'),
  ('Cn1cc(-c2nccn3nc(Nc4ccc(C5(C#N)CC5)cc4)nc23)cn1', 'SYK kinase (Homo sapiens, UniProt P43405)', '100 to 300 nM'),
  ('Fc1ccc(Nc2nccc(-c3nccs3)n2)cc1F', 'SYK kinase (Homo sapiens, UniProt P43405)', '> 2000 nM'),
  ('Nc1ncnc2scc(C#Cc3cccc(NC(=O)c4ccn(-c5ccc(F)cc5)n4)c3)c12', 'SYK kinase (Homo sapiens, UniProt P43405)', '1000 to 10000 nM'),
  ('COc1cc(Nc2cc(Oc3ccc(NC(=O)Nc4cc(C(C)(C)C)cc(NS(C)(=O)=O)c4OC)c4ccccc34)ccn2)cc(OC)c1C(=O)NCCN1CCOCC1', 'SYK kinase (Homo sapiens, UniProt P43405)', '112 nM'),
  ('CN(C)CC1(O)CCCN(c2nccn3nc(Nc4ccc5c(c4)NC(=O)C5(C)C)nc23)CC1 (stereo not drawn)', 'SYK kinase (Homo sapiens, UniProt P43405)', '100 to 300 nM'),
  ('Cn1c(=O)c(Nc2ccc(N3CCC(O)(C(F)(F)F)CC3)cn2)cc2c(F)c(-c3cc[nH]n3)ccc21', 'SYK kinase (Homo sapiens, UniProt P43405)', '30 nM'),
  ('CN1CCC(n2cc(Nc3nc(C4CCC4)nc4cn[nH]c34)cn2)CC1', 'SYK kinase (Homo sapiens, UniProt P43405)', '< 10 nM'),
  ('CCC(O)(CC)c1ccc(-c2cc3nccnc3c(OC[C@@H]3CN(C(C)=O)CCO3)n2)cc1', 'SYK kinase (Homo sapiens, UniProt P43405)', '179 nM'),
  ('CN1CCN(c2ccc(-c3cc4nccnc4c(OC[C@@H]4CNC(=O)C4)n3)cc2)CC1', 'SYK kinase (Homo sapiens, UniProt P43405)', '47 nM');
